assay: Plasma pharmacokinetics after single oral doses of RTI-336 in healthy males; type: in vivo, human; conditions: male, human; plasma, single oral dose 3 mg, fasted, healthy males
Endpoint: AUC(0-inf) (ng·h/mL)
Form entry: value (ng·h/mL) — number only.

Quick one: AUC(0-inf) of Cc1ccc(-c2cc([C@@H]3C4CCC(C[C@@H]3c3ccc(Cl)cc3)N4C)on2)cc1 (stereo partly shown) ?
12.3

* * *

Test: Plasma pharmacokinetics after single oral doses of RTI-336 in healthy males
Format: in vivo, human
Settings: male, human, plasma, po, 20 mg, plasma, single oral dose 20 mg, fasted, healthy males; read-out: t1/2 (converted)
Description: RTI-336-001 was a single-center, double-blind, placebo-controlled, and randomized clinical trial to evaluate the safety, tolerability, and PK of single, escalating oral doses of RTI-336 (0.3, 1, 3, 6, 12, and 20 mg) in 2 cohorts (lowest 3 doses and highest 3 doses) of healthy male participants. RTI-336 and placebo capsules were identical in appearance, and participants, care providers, and those assessing outcomes were blinded to study drug assignment. […]
Endpoint: half-life (h)
Supply the numeric figure in h, leaving out any unit text.

// query half-life value for entry Cc1ccc(-c2cc([C@@H]3C4CCC(C[C@@H]3c3ccc(Cl)cc3)N4C)on2)cc1 (stereo partly shown)
18

* * *

Assay: Plasma pharmacokinetics after single oral doses of RTI-336 in healthy males
Format: in vivo, human
Conditions: male, human; plasma, single oral dose 1 mg, fasted, healthy males
Experimental: RTI-336-001 was a single-center, double-blind, placebo-controlled, and randomized clinical trial to evaluate the safety, tolerability, and PK of single, escalating oral doses of RTI-336 (0.3, 1, 3, 6, 12, and 20 mg) in 2 cohorts (lowest 3 doses and highest 3 doses) of healthy male participants. RTI-336 and placebo capsules were identical in appearance, and participants, care providers, and those assessing outcomes were blinded to study drug assignment. […]
Endpoint: Tmax (h)
# output: bare number, implied unit h

I am curious: what Tmax value has been reported for Cc1ccc(-c2cc([C@@H]3C4CCC(C[C@@H]3c3ccc(Cl)cc3)N4C)on2)cc1 (stereo partly shown) ?
4.5

* * *

experiment: Plasma pharmacokinetics after single oral doses of RTI-336 in healthy males; assay type: in vivo, human; settings: male, human; plasma, single oral dose 6 mg, fasted, healthy males
Endpoint: Tmax (h)
The reply should be a number in h, with the unit left off.

Dear colleague, I am looking for the recorded Tmax of the following molecule: Cc1ccc(-c2cc([C@@H]3C4CCC(C[C@@H]3c3ccc(Cl)cc3)N4C)on2)cc1 (stereo partly shown) [RTI-336]
4.38

* * *

assay: Plasma pharmacokinetics after single oral doses of RTI-336 in healthy males; type: in vivo, human; conditions: male, human, plasma, po, 6 mg, plasma, single oral dose 6 mg, fasted, healthy males; read-out: t1/2 (converted)
Endpoint: half-life
Answer with the number, then the unit.

So what does the record say about half-life for Cc1ccc(-c2cc([C@@H]3C4CCC(C[C@@H]3c3ccc(Cl)cc3)N4C)on2)cc1 (stereo partly shown) ?
17.9 h

* * *

test: Plasma pharmacokinetics after single oral doses of RTI-336 in healthy males; format: in vivo, human; conditions: male, human, plasma, po, 3 mg, plasma, single oral dose 3 mg, fasted, healthy males; read-out: t1/2 (converted)
Endpoint: half-life (h)
Give a bare numeral; the unit h is implied.

// query half-life value for entry Cc1ccc(-c2cc([C@@H]3C4CCC(C[C@@H]3c3ccc(Cl)cc3)N4C)on2)cc1 (stereo partly shown) [RTI-336]
7.07

* * *

Assay: Plasma pharmacokinetics after single oral doses of RTI-336 in healthy males
Assay type: in vivo, human
Conditions: male, human; plasma, single oral dose 12 mg, fasted, healthy males
Procedure: RTI-336-001 was a single-center, double-blind, placebo-controlled, and randomized clinical trial to evaluate the safety, tolerability, and PK of single, escalating oral doses of RTI-336 (0.3, 1, 3, 6, 12, and 20 mg) in 2 cohorts (lowest 3 doses and highest 3 doses) of healthy male participants. RTI-336 and placebo capsules were identical in appearance, and participants, care providers, and those assessing outcomes were blinded to study drug assignment. […]
Endpoint: Cmax (ng/mL)
Give the value, in units of ng/mL, as a plain number.

Reported Cmax, compound Cc1ccc(-c2cc([C@@H]3C4CCC(C[C@@H]3c3ccc(Cl)cc3)N4C)on2)cc1 (stereo partly shown) : ____
5.23

* * *

assay: Plasma pharmacokinetics after single oral doses of RTI-336 in healthy males; type: in vivo, human; details: male, human; plasma, single oral dose 6 mg, fasted, healthy males
Endpoint: AUC(0-inf) (ng·h/mL)
Please state the figure in ng·h/mL; there is no need to write the unit.

What value of AUC(0-inf) has been reported for the following molecule? Cc1ccc(-c2cc([C@@H]3C4CCC(C[C@@H]3c3ccc(Cl)cc3)N4C)on2)cc1 (stereo partly shown)
40.4

* * *

assay: Plasma pharmacokinetics after single oral doses of RTI-336 in healthy males; format: in vivo, human; conditions: male, human; plasma, single oral dose 1 mg, fasted, healthy males
Endpoint: AUC(0-inf) (ng·h/mL)
Dear colleague, please return just the value in ng·h/mL, with no unit written.

What value of AUC(0-inf) has been recorded for this entry: Cc1ccc(-c2cc([C@@H]3C4CCC(C[C@@H]3c3ccc(Cl)cc3)N4C)on2)cc1 (stereo partly shown)
3.8

* * *

test: Plasma pharmacokinetics after single oral doses of RTI-336 in healthy males; type: in vivo, human; details: male, human; plasma, single oral dose 20 mg, fasted, healthy males
Endpoint: AUC(0-inf) (ng·h/mL)
Write the number in ng·h/mL without appending the unit.

Request the reported AUC(0-inf) associated with Cc1ccc(-c2cc([C@@H]3C4CCC(C[C@@H]3c3ccc(Cl)cc3)N4C)on2)cc1 (stereo partly shown)
115

* * *

Assay: Plasma pharmacokinetics after single oral doses of RTI-336 in healthy males
Assay type: in vivo, human
Settings: male, human; plasma, single oral dose 6 mg, fasted, healthy males
Method: RTI-336-001 was a single-center, double-blind, placebo-controlled, and randomized clinical trial to evaluate the safety, tolerability, and PK of single, escalating oral doses of RTI-336 (0.3, 1, 3, 6, 12, and 20 mg) in 2 cohorts (lowest 3 doses and highest 3 doses) of healthy male participants. RTI-336 and placebo capsules were identical in appearance, and participants, care providers, and those assessing outcomes were blinded to study drug assignment. […]
Endpoint: Cmax (ng/mL)
Reply with just the number (in ng/mL).

What measured Cmax goes with Cc1ccc(-c2cc([C@@H]3C4CCC(C[C@@H]3c3ccc(Cl)cc3)N4C)on2)cc1 (stereo partly shown) ?
3.26

* * *

test: Plasma pharmacokinetics after single oral doses of RTI-336 in healthy males; assay type: in vivo, human; settings: male, human; plasma, single oral dose 20 mg, fasted, healthy males
Endpoint: Tmax (h)
Kindly answer with a numeric value in h, unit omitted.

What value of Tmax has been recorded for this entry: Cc1ccc(-c2cc([C@@H]3C4CCC(C[C@@H]3c3ccc(Cl)cc3)N4C)on2)cc1 (stereo partly shown)
3.43

* * *

assay: Plasma pharmacokinetics after single oral doses of RTI-336 in healthy males; assay type: in vivo, human; conditions: male, human; plasma, single oral dose 12 mg, fasted, healthy males
Endpoint: AUC(0-inf) (ng·h/mL)
Answer format: numeric, ng·h/mL implied, no suffix.

Entry under review: Cc1ccc(-c2cc([C@@H]3C4CCC(C[C@@H]3c3ccc(Cl)cc3)N4C)on2)cc1 (stereo partly shown) [RTI-336] . Reported AUC(0-inf)?
63.1

Values compiled from paper PMC6048956.
